Just for reference, the supplement of paper PMC11061612 is where these values come from.

Tested on: NUGC-3 (Gastric Carcinoma);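 further: after 72 h of two-drug dosing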
assay-comment: Bliss excess, mean over the matrix (fraction); higher = more synergy
endpoint-name: Bliss excess

INSERT INTO assay_data (compound, measured_target, result) VALUES
  ('CCN(CCO)CCCOc1ccc2c(Nc3cc(CC(=O)Nc4cccc(F)c4)[nH]n3)ncnc2c1 [AZD2811] + C[C@@H]1COCCN1C2=NC(=NC(=C2)C3(CC3)[S@](=N)(=O)C)C4=C5C=CNC5=NC=C4 [AZD6738] (first compound max 1 µM, 7x7, partner max 10 µM)', 'NUGC-3 (Gastric Carcinoma)', 0.004),
  ('Cn1cnc2c(F)c(Nc3ccc(Br)cc3Cl)c(C(=O)NOCCO)cc21 [Selumetinib] + C[C@@H]1COCCN1C2=NC(=NC(=C2)C3(CC3)[S@](=N)(=O)C)C4=C5C=CNC5=NC=C4 [AZD6738] (first compound max 10 µM, 7x7, partner max 10 µM)', 'NUGC-3 (Gastric Carcinoma)', 0.0428),
  ('Cc1c2c(nn1C)CSCc1cc(n(C)n1)CSc1cc(c3ccccc3c1)OCCCc1c(C(=O)O)n(C)c3c-2c(Cl)ccc13 [AZD5991] + CCN(CCO)CCCOc1ccc2c(Nc3cc(CC(=O)Nc4cccc(F)c4)[nH]n3)ncnc2c1 [AZD2811] (first compound max 1 µM, 7x7, partner max 1 µM)', 'NUGC-3 (Gastric Carcinoma)', 0.0454);

----------
System: HOP-62 (Lung Adenocarcinoma)
assay-comment: combination Emax (second highest fraction inhibited in the dose matrix, 72 h); higher = more inhibition; extreme values may be limits of the assay
Rule: criterion met for combination Emax not less than 0.4, criterion not met for anything less.

INSERT INTO measurements (compound, measured_target, answer_label) VALUES
  ('CC1(C)CCC(CN2CCN(c3ccc(C(=O)NS(=O)(=O)c4ccc(NCC5CCOCC5)c([N+](=O)[O-])c4)c(Oc4cnc5[nH]ccc5c4)c3)CC2)=C(c2ccc(Cl)cc2)C1 [Venetoclax] + Cn1cnc2c(F)c(Nc3ccc(Br)cc3Cl)c(C(=O)NOCCO)cc21 [Selumetinib] (first compound max 1 µM, 7x7, partner max 3 µM)', 'HOP-62 (Lung Adenocarcinoma)', 'criterion met'),
  ('CN(CCO)CC[C@H](CSc1ccccc1)Nc1ccc(S(=O)(=O)NC(=O)c2ccc(N3CCC([C@@H](O)c4ccccc4-c4ccc(Cl)cc4)CC3)cc2)cc1S(=O)(=O)C(F)(F)F [AZD4320] + CCN(CCO)CCCOc1ccc2c(Nc3cc(CC(=O)Nc4cccc(F)c4)[nH]n3)ncnc2c1 [AZD2811] (first compound max 1 µM, 7x7, partner max 1 µM)', 'HOP-62 (Lung Adenocarcinoma)', 'criterion not met'),
  ('CN(CCO)CC[C@H](CSc1ccccc1)Nc1ccc(S(=O)(=O)NC(=O)c2ccc(N3CCC([C@@H](O)c4ccccc4-c4ccc(Cl)cc4)CC3)cc2)cc1S(=O)(=O)C(F)(F)F [AZD4320] + C1CN(CCC1(C(=O)N[C@@H](CCO)C2=CC=C(C=C2)Cl)N)C3=NC=NC4=C3C=CN4 [Capivasertib] (first compound max 1 µM, 7x7, partner max 3 µM)', 'HOP-62 (Lung Adenocarcinoma)', 'criterion not met'),
  ('COc1nnc2ccc(N3CCC(c4ccc(OCCN5CCN(C)C(=O)[C@H]5C)cc4)CC3)nn12 [AZD5153] + C[C@@H]1COCCN1C2=NC(=NC(=C2)C3(CC3)[S@](=N)(=O)C)C4=C5C=CNC5=NC=C4 [AZD6738] (first compound max 1 µM, 7x7, partner max 10 µM)', 'HOP-62 (Lung Adenocarcinoma)', 'criterion met'),
  ('CC1(C)CCC(CN2CCN(c3ccc(C(=O)NS(=O)(=O)c4ccc(NCC5CCOCC5)c([N+](=O)[O-])c4)c(Oc4cnc5[nH]ccc5c4)c3)CC2)=C(c2ccc(Cl)cc2)C1 [Venetoclax] + COc1cc(Nc2ncc3c(n2)-c2ccc(Cl)cc2C(c2c(F)cccc2OC)=NC3)ccc1C(=O)O [Alisertib] (first compound max 1 µM, 7x7, partner max 10 µM)', 'HOP-62 (Lung Adenocarcinoma)', 'criterion met');
